Molecular target: human 5-HT2A receptor (Homo sapiens)
Construct: expressed in transfected cells; host or cells: CHO-K1
Sequence (P28223 whole entry): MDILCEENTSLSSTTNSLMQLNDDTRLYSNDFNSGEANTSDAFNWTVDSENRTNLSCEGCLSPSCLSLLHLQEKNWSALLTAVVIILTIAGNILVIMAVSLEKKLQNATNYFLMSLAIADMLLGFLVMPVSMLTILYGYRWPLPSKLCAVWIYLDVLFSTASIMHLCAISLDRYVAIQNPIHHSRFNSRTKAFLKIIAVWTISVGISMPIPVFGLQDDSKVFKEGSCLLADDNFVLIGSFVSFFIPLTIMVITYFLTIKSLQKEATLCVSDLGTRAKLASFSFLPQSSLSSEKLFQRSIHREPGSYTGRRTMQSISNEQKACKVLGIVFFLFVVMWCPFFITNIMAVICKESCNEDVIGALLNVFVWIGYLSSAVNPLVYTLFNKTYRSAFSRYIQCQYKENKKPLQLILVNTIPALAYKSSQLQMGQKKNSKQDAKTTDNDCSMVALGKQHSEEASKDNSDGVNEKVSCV
Assay: 5-HT2A agonism, inositol monophosphate accumulation (HTRF), CHO-K1 recombinant cells
Assay type: cell-based
Conditions: 5-HT2A; CHO-K1, IP accumulation

{"columns": ["compound", "EC50 (µM)"],
 "data": [
  ["CN[C@H](C)Cc1ccc2c(c1)OCO2 [R(−)-MDMA, R(−)-3,4-methylenedioxymethamphetamine]", 3.34],
  ["CNC(C)Cc1ccc2c(c1)OCO2 (racemic) [Racemic MDMA, 3,4-methylenedioxymethamphetamine, reference compound]", 4.73]
]}

###

Collected pEC50 values appear next to each entry.
Molecular target: UniProt:P41595
Sequence (P41595 whole entry): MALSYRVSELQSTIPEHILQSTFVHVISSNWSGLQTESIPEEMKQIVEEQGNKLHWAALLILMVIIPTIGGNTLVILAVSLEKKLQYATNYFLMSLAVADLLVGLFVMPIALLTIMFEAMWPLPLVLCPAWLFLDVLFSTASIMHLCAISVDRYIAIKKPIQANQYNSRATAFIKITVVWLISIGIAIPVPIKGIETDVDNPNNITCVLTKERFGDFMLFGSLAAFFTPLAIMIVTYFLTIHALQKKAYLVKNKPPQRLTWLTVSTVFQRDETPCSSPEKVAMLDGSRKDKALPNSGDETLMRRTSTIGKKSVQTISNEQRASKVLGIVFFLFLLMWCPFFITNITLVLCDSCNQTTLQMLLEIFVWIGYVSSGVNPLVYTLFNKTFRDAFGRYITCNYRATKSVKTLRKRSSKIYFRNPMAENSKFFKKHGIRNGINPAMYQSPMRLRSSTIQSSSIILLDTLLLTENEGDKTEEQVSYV
Experiment: 5-HT2B agonism, inositol monophosphate accumulation (HTRF), CHO-K1 recombinant cells
Details: 5-HT2B; CHO-K1, IP accumulation
pEC50: −log10 of the molar value.
value-type: pEC50

{"columns": ["molecule", "observed-result"],
 "data": [
  ["CN[C@H](C)Cc1ccc2c(c1)OCO2 [R(−)-MDMA, R(−)-3,4-methylenedioxymethamphetamine]", 7.28],
  ["CNC(C)Cc1ccc2c(c1)OCO2 (racemic) [Racemic MDMA, 3,4-methylenedioxymethamphetamine, reference compound]", 6.71]
]}
